- target-of-assay: SARS-CoV-2 spike on pseudovirus (SARS-CoV-2, UniProt P0DTC2 14-1273)
- protocol-text: cell-based or functional assay
assay-metric: IC50, SARS-CoV-2 spike pseudovirus neutralization, repeated assay (FIGS. 9A-9F) (µM)
Output spec: scalar in µM, unitless text.

Report IC50, SARS-CoV-2 spike pseudovirus neutralization, repeated assay (FIGS. 9A-9F) for 2C7 VHH-hFc (Fc fusion, also called NCI-CoV-2C7 VHH-hFc fusion protein) EVQLVESGGGSVQTGGSLRLSCVVSGYDYSNYCVAWFRQAEGKNREGLAGINTHGAYTNYNTPAKGRFTISQDLTKNTFTLQMNSLTPEDTAIYYCAAYPEYCPRFSSSSWNNSAVWGQGTQVTVSS please.
5.79

Need IC50, SARS-CoV-2 spike pseudovirus neutralization, repeated assay (FIGS. 9A-9F), item 1A7 VHH-hFc (Fc fusion, also called NCI-CoV-1A7 VHH-hFc fusion protein) QVQLVESGGGLVQPGGSLRLSCVASGFTFSSVDMSWVRQDPRKGLEWVSGINSGGGSTSYADSVKGQFTISRDNAKNTLYLEMNNLKPEDTAVYYCATGLAASGVWGQGTQVTVSS
0.428

Each recorded value in this set is attributed to patent US20230391852A1.
